The values you see were collected from PubChem BioAssay (NCI).

# Test system: SNB-19 CNS
# test description: NCI-60 one-dose screen, 48 h
# protocol conditions: 10 µM unless noted
Compounds without any hit were thinned out: in the full panel of roughly 83,000, 20% have a hit. Calls of active or inactive are those of the source. How the source made its calls: active means growth percent below 10; inactive means the rest.
Outcome codes: True for active, False for inactive

{"sample smiles": "NS(=O)(=O)c1nnc(/N=C/c2c(O)[nH]c3ccccc23)s1", "qualitative label": "False"}
{"sample smiles": "COC(=O)N1CCN(CCNCc2ccc(NC(=O)c3ccc(C)c(C#Cc4cnc5cccnn45)c3)cc2C(F)(F)F)CC1", "qualitative label": "False"}
{"sample smiles": "CN1CCN(Cc2ccc(NC(=O)c3cncc(C#Cc4cnc5ccc(O[C@@H]6CCOC6)nn45)c3)cc2C(F)(F)F)CC1", "qualitative label": "True"}
{"sample smiles": "CC(=O)c1cc(C(=O)N2c3ccccc3Sc3ccccc32)n2c1ccc1ccccc12", "qualitative label": "False"}
{"sample smiles": "COc1ccc(/C(=N\\N=C(N)N)c2ccc(Cl)cc2)cc1OC", "qualitative label": "False"}
{"sample smiles": "CC(C)(O)c1cncc(-c2ccc3ncc(C#N)c(N4CCc5cc(F)c(Cl)cc54)c3c2)c1", "qualitative label": "False"}
{"sample smiles": "CN1CCN(Cc2ccc(NC(=O)c3cncc(C#Cc4cnc5ccc(NCCO)nn45)c3)cc2C(F)(F)F)CC1", "qualitative label": "True"}
{"sample smiles": "COc1ccc([C@@H]2C(=O)N(c3cc(OC)c(OC)c(OC)c3)[C@H]2c2ccc(OC)c(O)c2)cc1", "qualitative label": "False"}
{"sample smiles": "CCN(CC)CCOc1ccc(C(=C(C)Cc2ccc(OC)cc2)c2ccc(OCCN(CC)CC)cc2)cc1", "qualitative label": "False"}
{"sample smiles": "CCCCSC1=C(Cl)CN(c2ccc(Cl)cc2)C1=O", "qualitative label": "False"}
{"sample smiles": "CN1CCN(Cc2ccc(NC(=O)c3cncc(C#Cc4cnc5ccc(OCC(F)F)nn45)c3)cc2C(F)(F)F)CC1", "qualitative label": "True"}
{"sample smiles": "O=C(CSc1nnc(-c2cccs2)n1-c1ccccc1)Nc1ccccc1", "qualitative label": "False"}
{"sample smiles": "CCOc1cccc(/C(N)=N/C(N)=N/c2nc3ccccc3s2)c1", "qualitative label": "False"}
{"sample smiles": "O=C1Nc2cc(Cl)ccc2/C1=C\\c1ccc(OCc2ccccc2)cc1", "qualitative label": "False"}
{"sample smiles": "O=C(CCCCCCN1CC(=O)N2[C@@H](c3ccccc3Br)c3[nH]c4ccccc4c3C[C@H]2C1=O)NO", "qualitative label": "False"}
{"sample smiles": "O=C(CCl)Nc1ccc(NC(=O)c2cc(Cl)ccc2O)c(Cl)c1", "qualitative label": "False"}
{"sample smiles": "CCNC(=O)Oc1ccc(/C(=C(/C)c2ccc(OC)cc2)c2ccc(OCCN3CCCCCC3)cc2)cc1", "qualitative label": "False"}
{"sample smiles": "Brc1cc(-c2cc(-c3ccc4c(c3)OCCO4)[nH]n2)cs1", "qualitative label": "False"}
{"sample smiles": "COc1ccc(C(=NNS(=O)(=O)c2ccc(C)cc2)c2ccccc2)cc1OC", "qualitative label": "False"}
{"sample smiles": "CSc1ccc(/C(=N/N=C(N)N)c2ccc(Cl)cc2)cc1", "qualitative label": "False"}

---

The entries below come with measured growth values attached.
# Test system: IGROV1 ovarian
# test description: NCI-60 one-dose screen, 48 h (100 = growth as untreated, 0 = no growth, -100 = all killed)
# protocol conditions: 10 µM unless noted
Compounds without any hit were thinned out: in the full panel of roughly 83,000, 20% have a hit.
measured property: growth (%)

{"compound": "CN(C)CC(=O)Nc1nc(-c2cccc(NS(=O)(=O)c3cccc4c(N(C)C)cccc34)c2)cs1", "reported measurement": 90.7}
{"compound": "CC(=O)c1c([Si](C)(C)C)c2cc(C#N)ccn2c1C(=O)c1ccc(Br)cc1", "reported measurement": 68.7}
{"compound": "COc1ccc2c(c1)c(/C=N/Nc1ccnc3cc(Cl)ccc13)cn2C", "reported measurement": -82}
{"compound": "NS(=O)(=O)c1ccc(CCn2c(-c3ccc(C(=O)O)cc3)nc(-c3ccccc3)c2-c2ccccc2)cc1", "reported measurement": 108}
{"compound": "OCC(Nc1ncnc2ccc(-c3cnc4cnccn34)cc12)c1ccccc1 (stereo not drawn)", "reported measurement": 39.1}
{"compound": "O=C(/C=C/c1cccc(Br)c1)c1cccc(OCCCCOc2cccc(C(=O)/C=C/c3cccc(Br)c3)c2)c1", "reported measurement": 101}
{"compound": "COc1ccc(C(C)=C(c2ccc(OCCN3CCCCCC3)cc2)c2ccc(OCCN3CCCCCC3)cc2)cc1", "reported measurement": -67.9}
{"compound": "CS(=O)(=O)c1ccc(/C(=N/N=C(N)N)c2ccc(F)cc2)cc1", "reported measurement": 110}
{"compound": "CNC(=O)c1cc(N2CCc3cc(NC(=O)Nc4ccc(N5CCOCC5)c(C(F)(F)F)c4)ccc32)ccn1", "reported measurement": 37.3}
{"compound": "COc1ccc(C(C)=C(c2ccc(OCCN(C)C)cc2)c2ccc(OCCN(C)C)cc2)cc1", "reported measurement": -24.6}
{"compound": "CC(Nc1c(C#N)cnc2ccc(-c3cncc(-c4n[nH]c(=O)o4)c3)cc12)c1ccccc1 (stereo not drawn)", "reported measurement": -20}
{"compound": "COc1cc(C(=O)c2cc(C(C)=O)c3ccc(C)cn23)cc(OC)c1OC", "reported measurement": 41.9}
{"compound": "CC(=O)OC[C@@]12Oc3c(cccc3-c3ccc(O)c4c3O[C@]3(COC(C)=O)C(=C4O)C(=O)C[C@H](C)[C@@H]3OC(C)=O)C(O)=C1C(=O)C[C@H](C)[C@@H]2OC(C)=O", "reported measurement": 26.9}
{"compound": "O=C(O)c1ccc(-n2c(=O)n(-c3cccc(C(F)(F)F)c3)c(=O)c3cc(-c4ccc(F)cc4F)ccc32)cc1", "reported measurement": 17.8}
{"compound": "N#Cc1nc(-c2ccc(Cl)cc2)oc1N1CCC(S(=O)(=O)N2CCOCC2)CC1", "reported measurement": 90.5}
{"compound": "O=C(Nc1ccccc1)Nc1nc2ccc([N+](=O)[O-])cc2[nH]1", "reported measurement": 45.9}
{"compound": "O=C(N/N=C\\c1ccc([N+](=O)[O-])cc1)c1ccc2nc(-c3ccc(Br)cc3)[nH]c2c1", "reported measurement": 18}
{"compound": "C[C@H](Nc1ncnc2ccc(-c3cnc(Cl)c(NS(C)(=O)=O)c3)cc12)c1ccccc1", "reported measurement": -28.8}
